Every entry's value here was drawn from patent US20170362324A1.

# target_desc: T1, human soluble αvβ5 protein (extracellular domains of human αv and β5 integrin subunits) (human, UniProt P06756 31-992; P18084 24-719)
# T1 construct: also called biotin-αvβ5; hsαvβ5
# experimental_details: ELISA, biotin-αvβ5 on streptavidin plate, unpurified antibody
endpoint_label: EC50 (pM)
Dear colleague, please return just the value in pM, with no unit written.

{"columns": ["binder", "EC50 [pM]"],
 "data": [
  ["VH2/VL0 Agly-hIgG1(T299A) (antibody, V domains shown, also called H2/L0) VH: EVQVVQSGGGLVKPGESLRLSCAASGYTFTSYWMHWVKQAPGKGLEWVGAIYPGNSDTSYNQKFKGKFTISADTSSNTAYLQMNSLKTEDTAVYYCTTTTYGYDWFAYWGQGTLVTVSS VL: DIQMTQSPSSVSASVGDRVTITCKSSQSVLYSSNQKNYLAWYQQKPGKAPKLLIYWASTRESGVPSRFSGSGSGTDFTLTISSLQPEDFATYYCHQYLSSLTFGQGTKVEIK", 500],
  ["VH4/VL1 Agly-hIgG1(T299A) (antibody, V domains shown, also called H4/L1) VH: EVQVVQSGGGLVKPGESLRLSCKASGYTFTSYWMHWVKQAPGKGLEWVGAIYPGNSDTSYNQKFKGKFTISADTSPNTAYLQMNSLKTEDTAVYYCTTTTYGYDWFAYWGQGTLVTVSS VL: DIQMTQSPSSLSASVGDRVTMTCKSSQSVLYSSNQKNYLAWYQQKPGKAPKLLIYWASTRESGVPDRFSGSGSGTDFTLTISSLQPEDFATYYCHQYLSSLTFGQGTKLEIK", 400],
  ["VH3/VL3 Agly-hIgG1(T299A) (antibody, V domains shown, also called H3/L3) VH: EVQVVESGGGLVKPGGSLRLSCKASGYTFTSYWMHWVKQAPGKGLEWVGAIYPGNSDTSYNQKFKGKFTLSAVTSSNTAYLQMNSLKTEDTAVYYCTTTTYGYDWFAYWGQGTLVTVSS VL: DIQMTQSPSSLTVSVGDRVTMSCKSSQSVLYSSNQKNYLAWYQQKPGKSPKLLIYWASTRESGVPDRFTGSGSGTDFTLTISSVQPEDFATYYCHQYLSSLTFGAGTKLEIK", 1200],
  ["VH5/VL0 Agly-hIgG1(T299A) (antibody, V domains shown, also called H5/L0) VH: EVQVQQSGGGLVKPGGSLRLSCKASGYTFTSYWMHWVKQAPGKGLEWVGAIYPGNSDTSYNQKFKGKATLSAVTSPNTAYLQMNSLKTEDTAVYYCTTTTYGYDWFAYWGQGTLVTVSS VL: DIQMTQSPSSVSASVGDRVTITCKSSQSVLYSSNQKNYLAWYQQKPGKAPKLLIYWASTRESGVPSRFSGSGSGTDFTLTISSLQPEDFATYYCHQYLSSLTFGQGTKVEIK", 400]
]}

EC50 reading for VH1/VL1 Agly-hIgG1(T299A) (antibody, V domains shown, also called H1/L1) VH: EVQVVESGGGLVKPGGSLRLSCAASGYTFTSYWMHWVRQAPGKGLEWVGAIYPGNSDTSYNQKFKGRFTISADTSKNTLYLQMNSLKTEDTAVYYCTTTTYGYDWFAYWGQGTLVTVSS VL: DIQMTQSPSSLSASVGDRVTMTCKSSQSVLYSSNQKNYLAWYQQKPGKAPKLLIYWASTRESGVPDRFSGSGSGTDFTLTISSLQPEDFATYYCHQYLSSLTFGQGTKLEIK : 1900
